B1: TMEM192 (parent)
chain: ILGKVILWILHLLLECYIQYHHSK

variants of: B1; assay: protein stability index of a GFP-peptide fusion (GPS, HEK-293T) (PSI 1-6); higher = more stable; conditions: c terminus: a fixed tail appended;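 note: lentivirally expressed fusions sorted by FACS into six bins by GFP to DsRed ratio, PSI derived from sequencing read proportions per bin multiplied by bin number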
Reported metric: protein stability index

Batch: protein stability index for all items listed.
1. Y20G
2. G3D
3. H21L
4. H21M
5. Y17A
6. W8E
7. H21S

2.11
3.06
2.36
2.86
2.48
2.47
2.67

Provide the reported protein stability index of each entry below, same order.
1. K4H
2. G3K
3. I6Q

4.67
3.66
3.64

Look up protein stability index for the entries below, preserving their order.
1. H22Y
2. S23P
3. L12N
4. Y20C

1: 3.11; 2: 1.54; 3: 3.52; 4: 3.13

Batch request: protein stability index for each of the following variants.
1. E15H
2. I9W
3. K4A
4. W8R
5. K24I

1: 3.19; 2: 3.09; 3: 2.97; 4: 2.25; 5: 2.38
